Where do the numbers come from? From patent US8318950B2.

tested on: hypercholesterolemia in Wistar rats; assay: Model of hypercholesterolemia in rats (oral cholesterol loading); assay type: in vivo, rat; settings: day 5 of the experiment (Table 15)
# Total cholesterol, LDL + VLDL annotations
Report only the number, with the unit mg/100 ml understood.

| compound | assay_result |
| --- | --- |
| O=C(O)CCCC(=O)N[C@@H](Cc1c[nH]cn1)C(=O)O | 48.5 |
| CCC(C)(C)C(=O)O[C@H]1C[C@@H](C)C=C2C=C[C@H](C)[C@H](CC[C@@H]3C[C@@H](O)CC(=O)O3)[C@H]21 [Sim, Simvastatine, reference compound] | 43.0 |

Q: Requested field: Total cholesterol, LDL + VLDL. Item: O=C([O-])CCCC(=O)N[C@@H](Cc1c[nH]cn1)C(=O)[O-].[Na+].[Na+] [Compound IV” 2Na, N^α-glutaryl-L-histidine disodium salt]
Result: 44.3

Q: Subsequent entry: O=C([O-])CCCC(=O)N[C@@H](Cc1c[nH]cn1)C(=O)O.[Na+] [Compound IV-1Na, N^α-glutaryl-L-histidine Monosodium Salt]
Result: 38.8

---

Entries and their measured Triglycerides, Serum follow.
system: hypercholesterolemia in Wistar rats; test: Model of hypercholesterolemia in rats (oral cholesterol loading); format: in vivo, rat; settings: day 5 of the experiment (Table 15)
In your response, the unit should come after the numeric value.

| compound | Triglycerides, Serum |
| --- | --- |
| O=C([O-])CCCC(=O)N[C@@H](Cc1c[nH]cn1)C(=O)O.[Na+] [Compound IV-1Na, N^α-glutaryl-L-histidine Monosodium Salt] | 106.6 ± 6.2 mg/100 ml |
| O=C([O-])CCCC(=O)N[C@@H](Cc1c[nH]cn1)C(=O)[O-].[Na+].[Na+] [Compound IV” 2Na, N^α-glutaryl-L-histidine disodium salt] | 88.3 ± 4.8 mg/100 ml |
| O=C(O)CCCC(=O)N[C@@H](Cc1c[nH]cn1)C(=O)O | 120.6 ± 8.9 mg/100 ml |

Next compound, please.
Q: I am curious: what Triglycerides, Serum value has been reported for CCC(C)(C)C(=O)O[C@H]1C[C@@H](C)C=C2C=C[C@H](C)[C@H](CC[C@@H]3C[C@@H](O)CC(=O)O3)[C@H]21 [Sim, Simvastatine, reference compound] ?
Result: 108.9 ± 6.9 mg/100 ml

---

tested on: hypercholesterolemia in Wistar rats; test: Model of hypercholesterolemia in rats (oral cholesterol loading); type: in vivo, rat; conditions: day 8 of the experiment (Table 16)
measured_metric: Triglycerides, Serum (mg/100 ml)
Unit mg/100 ml implied. Number only.

See these solved cases before continuing.
| compound | unit_tag | Triglycerides, Serum |
| --- | --- | --- |
| O=C([O-])CCCC(=O)N[C@@H](Cc1c[nH]cn1)C(=O)O.[Na+] [Compound IV-1Na, N^α-glutaryl-L-histidine Monosodium Salt] | mg/100 ml | 146.4 |
| CCC(C)(C)C(=O)O[C@H]1C[C@@H](C)C=C2C=C[C@H](C)[C@H](CC[C@@H]3C[C@@H](O)CC(=O)O3)[C@H]21 [Sim, Simvastatine, reference compound] | mg/100 ml | 119.9 |
| O=C([O-])CCCC(=O)N[C@@H](Cc1c[nH]cn1)C(=O)[O-].[Na+].[Na+] [Compound IV” 2Na, N^α-glutaryl-L-histidine disodium salt] | mg/100 ml | 125.8 |

Now look at this entry.
Q: Which Triglycerides, Serum is reported for this compound? O=C(O)CCCC(=O)N[C@@H](Cc1c[nH]cn1)C(=O)O [Compound IV, N^α-glutaryl-L-histidine]
Result: 154.2

---

System: hypercholesterolemia in Wistar rats
Assay: Model of hypercholesterolemia in rats (oral cholesterol loading)
Format: in vivo, rat
Conditions: day 10 of the experiment (Table 17)
Method: The study was carried out on male Wistar rats weighing 200±20 g. Hyperlipidemia was induced by oral administration of cholesterol loading, oily cholesterol suspension: olive oil (Acorsa, Spain)—5 ml/kg weigh of animals; cholesterol (Sigma, USA)—1 g/kg weight; […] Blood serum total cholesterol, triglycerides and high density lipoprotein cholesterol (HDLC) were measured. Low and very low density lipoprotein cholesterol was calculated by the difference between total cholesterol and HDL cholesterol. […]
measured_metric: Triglycerides, Serum (mg/100 ml)
Dear colleague, please return just the value in mg/100 ml, with no unit written.

| molecule | unit_tag | Triglycerides, Serum |
| --- | --- | --- |
| O=C([O-])CCCC(=O)N[C@@H](Cc1c[nH]cn1)C(=O)[O-].[Na+].[Na+] [Compound IV” 2Na, N^α-glutaryl-L-histidine disodium salt] | mg/100 ml | 127.3 |
| CCC(C)(C)C(=O)O[C@H]1C[C@@H](C)C=C2C=C[C@H](C)[C@H](CC[C@@H]3C[C@@H](O)CC(=O)O3)[C@H]21 [Sim, Simvastatine, reference compound] | mg/100 ml | 142.0 |
| O=C(O)CCCC(=O)N[C@@H](Cc1c[nH]cn1)C(=O)O | mg/100 ml | 143.3 |

Would you kindly look at the next entry?
Q: # get_value(readout= Triglycerides, Serum, system= hypercholesterolemia in Wistar rats) for O=C([O-])CCCC(=O)N[C@@H](Cc1c[nH]cn1)C(=O)O.[Na+] [Compound IV-1Na, N^α-glutaryl-L-histidine Monosodium Salt]
Result: 132.5

---

system: hypercholesterolemia in Wistar rats; test: Model of hypercholesterolemia in rats (oral cholesterol loading); assay type: in vivo, rat; conditions: day 10 of the experiment (Table 17)
measured_metric: Total cholesterol, HDL (mg/100 ml)
Kindly provide the numeric value in mg/100 ml only, without the unit symbol.

| compound | assay_result |
| --- | --- |
| O=C([O-])CCCC(=O)N[C@@H](Cc1c[nH]cn1)C(=O)O.[Na+] [Compound IV-1Na, N^α-glutaryl-L-histidine Monosodium Salt] | 37.7 |
| CCC(C)(C)C(=O)O[C@H]1C[C@@H](C)C=C2C=C[C@H](C)[C@H](CC[C@@H]3C[C@@H](O)CC(=O)O3)[C@H]21 [Sim, Simvastatine, reference compound] | 32.7 |
| O=C(O)CCCC(=O)N[C@@H](Cc1c[nH]cn1)C(=O)O [Compound IV, N^α-glutaryl-L-histidine] | 36.5 |

// below: Total cholesterol, HDL requested for another compound
Q: Consider the compound O=C([O-])CCCC(=O)N[C@@H](Cc1c[nH]cn1)C(=O)[O-].[Na+].[Na+] [Compound IV” 2Na, N^α-glutaryl-L-histidine disodium salt] and give its measured Total cholesterol, HDL.
Result: 40.0
